- System: PCSK9 mRNA
- assay-method-text: In vitro screening of modified dsRNAs targeted to PCSK9 (Table 2b; cell type not given)
- Type: cell-based
- condition: 30 nM siRNA
- Experimental: For transfection with siRNA, HuH7, HepG2, or HeLa cells were seeded at a density of 2.0×10^4 cells/well in 96-well plates and transfected directly. […] 24 hours after transfection HuH7 and HepG2 cells were lysed and PCSK9 mRNA levels were quantified with the Quantigene Explore Kit (Genosprectra, Dumbarton Circle Fremont, USA, cat. No. QG-000-02) according to the protocol. […]
In the oligonucleotide strings, read from the 5' end, every base follows the letter of its sugar. An asterisk marks phosphorothioate; unmarked linkages are phosphodiester. Other units and linkages are bracketed, terminal groups are in braces. A string of capitals states the bases alone. [Ab] = 3'-terminal abasic nucleotide; e = 2'-O-(2-methoxyethyl) (MOE); d = 2'-deoxy (DNA); m = 2'-O-methyl; r = 2'-OH (RNA); {P} = phosphate; f = 2'-fluoro
readout-label: Remaining mRNA in % of controls at siRNA conc. of 30 nM (%)
Give the value, in units of %, as a plain number.

AD-12399: modified dsRNA, SEQ ID NO:1493/1494 (chain 1 GCCUGGNAGUUUAUUCGGAATT; chain 2 {P}-fUfUfCfCrGrArAfUrArArAfCfUfCfCrArGrGfC*fC*fU; chain 1: chemistry not given here; further chemistry not fully specified): 13
AD-12063: modified dsRNA, SEQ ID NO:1361/1362 (chain 1 rGmCrCmUrGmGrAmGrUmUrUmArUmUrCmGrGmArA; chain 2 rUrUrCrCrGmAmArUrAmAmArCrUrCrCrAmGmGmC*mC*mU): 19
AD-12059: modified dsRNA, SEQ ID NO:1353/1354 (chain 1 rGmCrCmUrGmGrAmGrUmUrUmArUmUrCmGrGmArA; chain 2 mUrUmCrCrGrArAmUrArArArCrUmCmCrArGrGrCdT*dT): 23

Record AD-12391: modified dsRNA, SEQ ID NO:1477/1478 (chain 1 rGfCfCfUrGrGrArGrGfUfUfUrAfUfUfCrGrGrArA; chain 2 rUrUrCrCrGmAmArUrAmAmArCrUrCrCrAmGmGmC) . Reported Remaining mRNA in % of controls at siRNA conc. of 30 nM: 21

For AD-12360: modified dsRNA, SEQ ID NO:1417/1418 (chain 1 GCCUGGAGUUUAUUCGGAA; chain 2 rUrUrCrCrGrArArUrArArArCrUrCrCrArGrGrC*mC*mU; chain 1: sugars from the 5' end rererererererererer, all phosphodiester, methylation of C and T or U not given here) the substance record lists Remaining mRNA in % of controls at siRNA conc. of 30 nM as 15

Briefly, Remaining mRNA in % of controls at siRNA conc. of 30 nM measured for AD-12374: modified dsRNA, SEQ ID NO:1445/1446 (chain 1 rGfCfCfUrGrGrArGfUfUfUrAfUfUfCrGrGrArAdT*dT; chain 2 fUfUfCfCrGrArAfUrArArAfCfUfCfCrArGrGfCdT*dT) : 9

Entry AD-12378: modified dsRNA, SEQ ID NO:1451/1452 (chain 1 rGfCfCfUrGrGrArGfUfUfUrAfUfUfCrGrGrArAdT*dT; chain 2 rUrUrCrCrGmAmArUrAmAmArCrUrCrCrAmGmGmC*mC*mU) ; Remaining mRNA in % of controls at siRNA conc. of 30 nM = 6

Measured Remaining mRNA in % of controls at siRNA conc. of 30 nM, AD-12050: modified dsRNA, SEQ ID NO:1335/1336 (chain 1 rGmCmCmUrGrGrArGmUmUmUrAmUmUmCrGrGrArAdTdT[Ab]; chain 2 rUrUrCrCrGrArArUrArArArCrUrCrCrArGrGrCdTdT[Ab]) : 16

Input AD-12349: modified dsRNA, SEQ ID NO:1397/1398 (chain 1 GCCUGGNAGUUUAUUCGGAATT; chain 2 {P}-mUfUmCfCmGfAmAfUmAfAmAfCmUfCmCfAmGfGmCdT*dT; chain 1: chemistry not given here; further chemistry not fully specified) . Output Remaining mRNA in % of controls at siRNA conc. of 30 nM: 11

Entry AD-12381: modified dsRNA, SEQ ID NO:1457/1458 (chain 1 rGfCfCfUrGrGrArGfUfUfUrAfUfUfCrGrGrArAdT*dT; chain 2 {P}-mUfUmCfCmGfAmAfUmAfAmAfCmUfCmCfAmGfGmCdT*dT) , Remaining mRNA in % of controls at siRNA conc. of 30 nM reported as 10

Field Remaining mRNA in % of controls at siRNA conc. of 30 nM (entry AD-12055: modified dsRNA, SEQ ID NO:1345/1346 (chain 1 rGmCmCmUrGrGrArGmUmUmUrAmUmUmCrGrGrArAdT*dT; chain 2 rUrUrCrCrGrArArUrArArArCrUrCrCrArGrGrC*mC*mU) ) reads 13

So for AD-12357: modified dsRNA, SEQ ID NO:1411/1412 (chain 1 GCCUGGAGUUUAUUCGGAA; chain 2 rUrUrCrCrGmAmArUrAmAmArCrUrCrCrAmGmGmC; chain 1: sugars from the 5' end rererererererererer, all phosphodiester, methylation of C and T or U not given here) , the logged Remaining mRNA in % of controls at siRNA conc. of 30 nM turned out to be 56

Remaining mRNA in % of controls at siRNA conc. of 30 nM reported for this substance AD-12366: modified dsRNA, SEQ ID NO:1429/1430 (chain 1 GCCUGGAGUUUAUUCGGAATT; chain 2 rUrUrCrCrGrArArUrArArArCrUrCrCrArGrGrCdT*dT; chain 1: sugars from the 5' end rerererererererererdd, linkages o19 s1 (s phosphorothioate, o phosphodiester), methylation of C and T or U not given here) : 23

Sure, the documented Remaining mRNA in % of controls at siRNA conc. of 30 nM for AD-12350: modified dsRNA, SEQ ID NO:1399/1400 (chain 1 fGmCfCmUfGmGfAmGfUmUfUmAfUmUfCmGfGmAfAdTdT[Ab]; chain 2 {P}-mUfUmCfCmGfAmAfUmAfAmAfCmUfCmCfAmGfGmCdTdT[Ab]) is 17

Item: AD-12351: modified dsRNA, SEQ ID NO:1401/1402 (chain 1 fGmCfCmUfGmGfAmGfUmUfUmAfUmUfCmGfGmAfA; chain 2 {P}-mUfUmCfCmGfAmAfUmAfAmAfCmUfCmCfAmGfGmC*fC*mU) | Remaining mRNA in % of controls at siRNA conc. of 30 nM: 11

----------
- Test system: PCSK9 mRNA
- assay-method-text: In vitro screening of modified dsRNAs targeted to PCSK9 (Table 2b; cell type not given)
- Type: cell-based
- condition: 30 nM siRNA
In the oligonucleotide strings, read from the 5' end, every base follows the letter of its sugar. An asterisk marks phosphorothioate; unmarked linkages are phosphodiester. Other units and linkages are bracketed, terminal groups are in braces. A string of capitals states the bases alone. [Ab] = 3'-terminal abasic nucleotide; e = 2'-O-(2-methoxyethyl) (MOE); d = 2'-deoxy (DNA); m = 2'-O-methyl; r = 2'-OH (RNA); {P} = phosphate; f = 2'-fluoro
So basically, if Remaining mRNA in % of controls at siRNA conc. of 30 nM comes in under 10% it's Condition met, and if it's 10% or more it's Condition not met.

For AD-12377: modified dsRNA, SEQ ID NO:1449/1450 (chain 1 rGfCfCfUrGrGrArGfUfUfUrAfUfUfCrGrGrArAdT*dT; chain 2 mUrUmCrCrGrArAmUrArArArCrUmCmCrArGrGrCdT*dT) , is the recorded Remaining mRNA in % of controls at siRNA conc. of 30 nM below the cut-off of 10%?
Condition not met

API: query returns whether the substance falls strictly under 10% in Remaining mRNA in % of controls at siRNA conc. of 30 nM. Query: AD-12369: modified dsRNA, SEQ ID NO:1435/1436 (chain 1 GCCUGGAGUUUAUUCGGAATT; chain 2 rUrUrCrCrGrArArUrArArArCrUrCrCrArGrGrCdT*dT; chain 1: DNA at T, 2'-MOE at CU, RNA at AG, linkages o19 s1 (s phosphorothioate, o phosphodiester), methylation of C and T or U not given here)
Condition not met

Please indicate whether the reported Remaining mRNA in % of controls at siRNA conc. of 30 nM of AD-12056: modified dsRNA, SEQ ID NO:1347/1348 (chain 1 rGmCrCmUrGmGrAmGrUmUrUmArUmUrCmGrGmArA; chain 2 rUrUrCrCrGrArArUrArArArCrUrCrCrArGrGrCdTdT[Ab]) is strictly below 10%.
Condition not met

Bench note: check whether AD-12402: modified dsRNA, SEQ ID NO:1499/1500 (chain 1 rGmCmCmUrGrGrArGmUmUmUrAmUmUmCrGrGrArA; chain 2 {P}-fUfUfCfCrGrArAfUrArArAfCfUfCfCrArGrGfC*fC*fU) shows Remaining mRNA in % of controls at siRNA conc. of 30 nM below 10%
Condition not met

Is 10% strictly greater than the substance's reported Remaining mRNA in % of controls at siRNA conc. of 30 nM? substance: AD-12342: modified dsRNA, SEQ ID NO:1383/1384 (chain 1 fGmCfCmUfGmGfAmGfUmUfUmAfUmUfCmGfGmAfAdT*dT; chain 2 rUrUrCrCrGrArAmUrArArArCrUrCmCrArGrGrCdT*dT)
Condition not met

I wonder whether AD-12054: modified dsRNA, SEQ ID NO:1343/1344 (chain 1 rGrCrCrUrGrGrArGrUrUrUrArUrUrCrGrGrArAdT*dT; chain 2 rUrUrCrCrGrArArUrArArArCrUrCrCrArGrGrC*mC*mU) has Remaining mRNA in % of controls at siRNA conc. of 30 nM below 10%. Can you tell?
Condition met

Is Remaining mRNA in % of controls at siRNA conc. of 30 nM strictly under 10% for the entry AD-12058: modified dsRNA, SEQ ID NO:1351/1352 (chain 1 rGmCrCmUrGmGrAmGrUmUrUmArUmUrCmGrGmArA; chain 2 rUrUrCrCrGrArAmUrArArArCrUrCmCrArGrGrCdT*dT) ?
Condition met

Decide: Remaining mRNA in % of controls at siRNA conc. of 30 nM of AD-12358: modified dsRNA, SEQ ID NO:1413/1414 (chain 1 GCCUGGAGUUUAUUCGGAA; chain 2 {P}-mUfUmCfCmGfAmAfUmAfAmAfCmUfCmCfAmGfGmC; chain 1: sugars from the 5' end rererererererererer, all phosphodiester, methylation of C and T or U not given here) strictly below 10%?
Condition not met
